- target.of.assay: IBAT (Mus musculus (Mouse))
- Sequence (P70172 whole entry): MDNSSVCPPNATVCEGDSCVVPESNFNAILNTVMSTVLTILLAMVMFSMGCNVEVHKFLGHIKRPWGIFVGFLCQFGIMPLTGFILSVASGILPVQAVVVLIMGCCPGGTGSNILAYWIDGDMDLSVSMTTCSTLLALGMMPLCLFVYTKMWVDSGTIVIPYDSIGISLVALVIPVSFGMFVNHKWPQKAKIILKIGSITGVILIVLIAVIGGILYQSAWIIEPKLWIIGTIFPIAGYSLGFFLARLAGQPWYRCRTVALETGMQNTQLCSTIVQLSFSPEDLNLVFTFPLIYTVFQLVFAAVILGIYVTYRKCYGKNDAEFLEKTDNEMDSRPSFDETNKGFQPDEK
- protocol.description: 75SeHCAT intestinal absorption in ApoE knock out mice (IBAT inhibitory effect)
- Type: in vivo
- measurement.conditions: po, oral dose 0.156 μmol/kg, 75SeHCAT absorption over 24 hours
Recorded inhibition at 0.156 µmol/kg, one value per entry.

{"molecule": "CCCCC1(CCCC)CN(c2ccccc2)c2cc(SC)c(OCC(=O)N[C@@H](C(=O)N[C@H](C(=O)O)C(C)C)c3ccc(O)cc3)cc2S(=O)(=O)N1 [Example 13]", "inhibition at 0.156 µmol/kg [%]": 68}
{"molecule": "CCCCC1(CCCC)CN(c2ccccc2)c2cc(SC)c(OCC(=O)N[C@@H](C(=O)N[C@H](C(=O)O)[C@@H](C)O)c3ccc(O)cc3)cc2S(=O)(=O)N1 [Example 8]", "inhibition at 0.156 µmol/kg [%]": 46}
{"molecule": "CCCCC1(CCCC)CN(c2ccccc2)c2cc(SC)c(OCC(=O)N[C@@H](C(=O)N[C@@H](CC)C(=O)O)c3ccc(O)cc3)cc2S(=O)(=O)N1 [Example 5]", "inhibition at 0.156 µmol/kg [%]": 74}
{"molecule": "CCCCC1(CCCC)CN(c2ccccc2)c2cc(SC)c(OCC(=O)N[C@@H](C(=O)N[C@@H](C)C(=O)O)c3ccc(O)cc3)cc2S(=O)(=O)N1 [Example 12]", "inhibition at 0.156 µmol/kg [%]": 63}
{"molecule": "CCCCC1(CCCC)CN(c2ccccc2)c2cc(SC)c(OCC(=O)N[C@@H](C(=O)NCC(=O)O)c3ccccc3)cc2S(=O)(=O)C1 [Example 14]", "inhibition at 0.156 µmol/kg [%]": 28}
{"molecule": "CCCCC1(CCCC)CN(c2ccccc2)c2cc(SC)c(OCC(=O)N[C@@H](C(=O)N[C@@H](CC)C(=O)O)c3ccccc3)cc2S(=O)(=O)N1 [Example 3]", "inhibition at 0.156 µmol/kg [%]": 63}

Origin of the recorded values: patent US10093697B2
